- test_target: NPC1 (Cricetulus griseus, UniProt Q9JLG3)
- Construct: CHO-7 cells in the medium are deprived of cholesterol to induce the LDL receptors biosynthesis; endogenous in cells; host or cells: CHO-7 cells
- Sequence (Q9JLG3 23-1277): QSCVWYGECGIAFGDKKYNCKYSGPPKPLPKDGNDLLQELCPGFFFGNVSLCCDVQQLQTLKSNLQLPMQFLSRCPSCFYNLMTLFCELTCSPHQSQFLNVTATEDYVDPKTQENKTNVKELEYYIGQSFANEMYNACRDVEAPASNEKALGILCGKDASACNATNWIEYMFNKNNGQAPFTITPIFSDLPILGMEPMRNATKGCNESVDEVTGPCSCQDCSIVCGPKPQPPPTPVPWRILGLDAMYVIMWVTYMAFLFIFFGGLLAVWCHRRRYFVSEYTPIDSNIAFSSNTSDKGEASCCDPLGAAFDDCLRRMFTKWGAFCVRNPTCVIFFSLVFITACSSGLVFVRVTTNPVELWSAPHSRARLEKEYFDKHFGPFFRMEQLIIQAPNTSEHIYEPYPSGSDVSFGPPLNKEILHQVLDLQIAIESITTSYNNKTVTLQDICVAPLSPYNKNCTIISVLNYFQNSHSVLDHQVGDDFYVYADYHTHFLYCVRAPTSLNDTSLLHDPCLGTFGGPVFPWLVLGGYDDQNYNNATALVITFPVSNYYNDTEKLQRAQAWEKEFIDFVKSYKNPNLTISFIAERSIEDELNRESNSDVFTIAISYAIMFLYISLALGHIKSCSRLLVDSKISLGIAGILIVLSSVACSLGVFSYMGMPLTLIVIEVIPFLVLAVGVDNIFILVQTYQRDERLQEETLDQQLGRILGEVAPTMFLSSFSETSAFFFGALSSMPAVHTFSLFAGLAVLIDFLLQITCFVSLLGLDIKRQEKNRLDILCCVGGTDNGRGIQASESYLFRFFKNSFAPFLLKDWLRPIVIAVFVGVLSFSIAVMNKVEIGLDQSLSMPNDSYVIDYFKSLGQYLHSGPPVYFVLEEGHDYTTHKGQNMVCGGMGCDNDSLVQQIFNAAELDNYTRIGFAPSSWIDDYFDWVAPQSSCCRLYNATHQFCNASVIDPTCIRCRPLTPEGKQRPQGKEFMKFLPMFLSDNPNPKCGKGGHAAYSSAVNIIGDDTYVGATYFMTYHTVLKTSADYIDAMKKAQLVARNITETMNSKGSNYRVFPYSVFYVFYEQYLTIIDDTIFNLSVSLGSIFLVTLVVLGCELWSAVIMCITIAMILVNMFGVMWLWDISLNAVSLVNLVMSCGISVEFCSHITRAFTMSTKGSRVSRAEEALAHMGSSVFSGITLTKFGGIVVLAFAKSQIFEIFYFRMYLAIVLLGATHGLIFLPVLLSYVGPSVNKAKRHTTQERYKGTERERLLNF
- protocol: Cholesterol re-esterification (ACAT) assay measuring NPC1-mediated export of cholesterol from lysosomes in CHO-7 cells
- Type: cell-based
- study_conditions: IC50 (concentration at which each compound inhibited cholesterol esterification by 50%), 10% FCS, 4 h then 2 h [14C] oleate pulse
Catalogue of IC50 readings, one per entry.

In: Recall and state the measured IC50 for CCC(C)n1ncn(-c2ccc(N3CCN(c4ccc(OCC5COC(Cn6cncn6)(c6ccc(Cl)cc6Cl)O5)cc4)CC3)cc2)c1=O (centres unmarked) [Itra-C] .
Out: 0.035 µM

In: For the compound CC(=O)N1CCN(c2ccc(OCC3COC(Cn4ccnc4)(c4ccc(Cl)cc4Cl)O3)cc2)CC1 (centres unmarked) [Ketoconazole, ketoconazole] , give its reported IC50.
Out: > 1 µM
